System: IMR90, immortalized lung fibroblasts
Assay: IC50 determination for adherent cells using SRB, IMR90
Type: cell-based, human
Conditions: read-out: IC50 IMR90, 48-hour exposure, immortalized normal cell line
pIC50: −log10 of the molar value.
observation type: pIC50

The following molecules have reported results that may help.
• COC1NC(=O)c2ccc(Br)n2C1Cc1c[nH]c(=O)[nH]1 (single isomer, unassigned; (+)) [(+)-53, (+)-O-methyl-pre-agelastatin D] = < 5.00
• O=C1N[C@H]2[C@@H]3NC(=O)c4cc(Br)c(Br)n4[C@@H]3C[C@@]2(O)N1 [(−)-6, (−)-agelastatin F] = < 5.00
• CN1C(=O)N[C@@]2(O)[C@@H]3NC(=O)c4ccc(Br)n4[C@@H]3C[C@@]12O [(−)-3, (−)-agelastatin C] = < 5.00
• CN1C(=O)N[C@H]2[C@@H]3NC(=O)c4ccc(Br)n4[C@@H]3C[C@]21O [(−)-1, (−)-agelastatin A] = 5.95
• CO[C@@]12C[C@@H]3[C@@H](NC(=O)c4ccc(Br)n43)[C@@H]1NC(=O)N2C [(−)-5, (−)-agelastatin E] = < 5.00
• COC1NC(=O)c2ccc(Br)n2C1Cc1c[nH]c(=O)n1C (single isomer, unassigned; (+)) [(+)-39, (+)-O-methyl-pre-agelastatin A] = < 5.00

Let's switch to this molecule now.
input: Look up and state reported pIC50 for O=C1N[C@H]2[C@@H]3NC(=O)c4ccc(Br)n4[C@@H]3C[C@@]2(O)N1 [(−)-4, (−)-agelastatin D]
output: 5.56

###

Tested on: HeLa, cervical carcinoma
Assay: IC50 determination for adherent cells using SRB, HeLa
Assay type: cell-based, human
Details: read-out: IC50 HeLa, 48-hour exposure
pIC50: −log10 of the molar value.
observation type: pIC50

* COC1NC(=O)c2ccc(Br)n2C1Cc1c[nH]c(=O)[nH]1 (single isomer, unassigned; (+)) [(+)-53, (+)-O-methyl-pre-agelastatin D] | < 5.00
* COC1NC(=O)c2ccc(Br)n2C1Cc1c[nH]c(=O)n1C (single isomer, unassigned; (+)) [(+)-39, (+)-O-methyl-pre-agelastatin A] | < 5.00

List pIC50 for every entry below, keeping the order given.
1. O=C1N[C@H]2[C@@H]3NC(=O)c4cc(Br)c(Br)n4[C@@H]3C[C@@]2(O)N1 [(−)-6, (−)-agelastatin F]
2. CN1C(=O)N[C@@]2(O)[C@@H]3NC(=O)c4ccc(Br)n4[C@@H]3C[C@@]12O [(−)-3, (−)-agelastatin C]

output:
["< 5.00", "< 5.00"]

Value source: paper PMC3920459
